target: human kappa opioid receptors (Homo sapiens); construct: expressed in transfected cells; host or cells: U2OS; test: [35S]GTPγS binding, membranes from U2OS cells; type: biochemical; details: read-out: GTPγS (% efficacy)
Sequence (P41145 whole entry): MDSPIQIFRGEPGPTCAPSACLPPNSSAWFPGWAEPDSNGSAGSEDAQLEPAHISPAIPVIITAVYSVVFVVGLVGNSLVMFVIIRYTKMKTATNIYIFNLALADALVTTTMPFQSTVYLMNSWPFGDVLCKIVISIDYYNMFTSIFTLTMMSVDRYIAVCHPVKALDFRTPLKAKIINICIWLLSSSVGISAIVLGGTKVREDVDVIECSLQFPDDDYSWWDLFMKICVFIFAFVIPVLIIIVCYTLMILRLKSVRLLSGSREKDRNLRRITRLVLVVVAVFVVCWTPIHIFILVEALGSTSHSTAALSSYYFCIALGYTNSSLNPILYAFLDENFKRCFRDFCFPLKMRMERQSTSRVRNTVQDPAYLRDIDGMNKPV
The following compounds are listed with their measured Emax values.
METRIC: Emax (%)

compound="O=C(Cc1ccc(Cl)c(Cl)c1)N1CCN(C(=O)CO)[C@H]2COC[C@@H](N3CCCC3)[C@@H]21 (single isomer, unassigned) [Example 5A95B]" recorded_measurement=78
compound="O=C(Cc1ccc(Cl)c(Cl)c1)N1CCN(C(=O)CO)[C@@H]2COC[C@H](N3CCCC3)[C@H]21 (single isomer, unassigned) [Example 5A95A]" recorded_measurement=87
compound="O=C(Cc1ccc(Cl)c(Cl)c1)N1CCN(Cc2cccnc2)[C@@H]2COC[C@H](N3CCCC3)[C@H]21 (racemic)" recorded_measurement=95
compound="O=C(Cc1ccc(Cl)c(Cl)c1)N1CCN(S(=O)(=O)CCO)[C@@H]2COC[C@H](N3CCCC3)[C@H]21 (single isomer, unassigned) [Example 5A140A]" recorded_measurement=112
compound="O=C(Cc1ccc(Cl)c(Cl)c1)N1CCN(C(=O)C2(O)CC2)[C@@H]2COC[C@H](N3CCCC3)[C@H]21 (single isomer, unassigned) [Example 5A126A]" recorded_measurement=98
compound="O=C(Cc1ccc(Cl)c(Cl)c1)N1CCN(C(=O)c2ccon2)[C@@H]2COC[C@H](N3CCCC3)[C@H]21 (racemic)" recorded_measurement=88
compound="O=C(Cc1ccc(Cl)c(Cl)c1)N1CCN(CC2CCOC2)[C@@H]2COC[C@H](N3CCCC3)[C@H]21 (some centres unmarked)" recorded_measurement=80
compound="CS(=O)(=O)CCN1CCN(C(=O)Cc2ccc(Cl)c(Cl)c2)[C@H]2[C@H]1COC[C@@H]2N1CCCC1 (racemic)" recorded_measurement=109
compound="O=C(Cc1ccc(Cl)c(Cl)c1)N1CCN(CC2CCOCC2)[C@@H]2COC[C@H](N3CCCC3)[C@H]21 (racemic)" recorded_measurement=84
compound="O=C(Cc1ccc(Cl)c(Cl)c1)N1CCN(Cc2ccccn2)[C@@H]2COC[C@H](N3CCCC3)[C@H]21 (racemic)" recorded_measurement=94
compound="O=C(Cc1ccc(Cl)c(Cl)c1)N1CCN(CC2CCS(=O)(=O)CC2)[C@@H]2COC[C@H](N3CCCC3)[C@H]21 (racemic)" recorded_measurement=100
compound="O=C(Cc1ccc(Cl)c(Cl)c1)N1CCN(Cc2cccc(F)c2)[C@@H]2COC[C@H](N3CCCC3)[C@H]21 (single isomer, unassigned) [Example 5A145A]" recorded_measurement=95
compound="O=C(Cc1ccc(Cl)c(Cl)c1)N1CCN(CCO)[C@H]2COC[C@@H](N3CCCC3)[C@@H]21 (single isomer, unassigned) [Example 5A74B]" recorded_measurement=95
compound="CC(O)CN1CCN(C(=O)Cc2ccc(Cl)c(Cl)c2)[C@H]2[C@H]1COC[C@@H]2N1CCCC1 (some centres unmarked)" recorded_measurement=93
compound="CC(F)(F)CN1CCN(C(=O)Cc2ccc(Cl)c(Cl)c2)[C@H]2[C@H](N3CCCC3)COC[C@@H]21 [Example 5A127B]" recorded_measurement=88
compound="O=C(Cc1ccc(Cl)c(Cl)c1)N1CCN(Cc2cccc(F)c2)[C@H]2COC[C@@H](N3CCCC3)[C@@H]21 (single isomer, unassigned) [Example 5A145B]" recorded_measurement=91
compound="O=C(Cc1ccc(Cl)c(Cl)c1)N1CCN(C(=O)C2(O)CCCC2)[C@H]2COC[C@@H](N3CCCC3)[C@@H]21 (single isomer, unassigned) [Example 5A125B]" recorded_measurement=81
compound="Cc1noc(CN2CCN(C(=O)Cc3ccc(Cl)c(Cl)c3)[C@H]3[C@H]2COC[C@@H]3N2CCCC2)n1 (racemic)" recorded_measurement=82
compound="CC(C)(O)CN1CCN(C(=O)Cc2ccc(Cl)c(Cl)c2)[C@H]2[C@H](N3CCCC3)COC[C@@H]21 (single isomer, unassigned) [Example 5A90B]" recorded_measurement=68
compound="O=C(Cc1ccc(Cl)c(Cl)c1)N1CCN(Cc2ccc(F)cc2)[C@H]2COC[C@@H](N3CCCC3)[C@@H]21 (single isomer, unassigned) [Example 5A136B]" recorded_measurement=129
compound="O=C(Cc1ccc(Cl)c(Cl)c1)N1CCN(Cc2ccon2)[C@@H]2COC[C@H](N3CCCC3)[C@H]21 [Example 5A86A]" recorded_measurement=99
compound="Cn1nccc1CN1CCN(C(=O)Cc2ccc(Cl)c(Cl)c2)[C@H]2[C@H]1COC[C@@H]2N1CCCC1 (racemic)" recorded_measurement=74
compound="COCCN1CCN(C(=O)Cc2ccc(Cl)c(Cl)c2)[C@H]2[C@H](N3CCCC3)COC[C@@H]21 (single isomer, unassigned) [Example 5A141B]" recorded_measurement=103
